Tested on: SF-539 CNS
ASSAY: NCI-60 one-dose screen, 48 h (100 = growth as untreated, 0 = no growth, -100 = all killed)
CONDITIONS_USED: 10 µM unless noted
This is part of a sample that, as a whole, favours compounds with a hit. Of some 83,000 tested, about 20% had one in any assay.
Could you mark each record Yes if its growth falls strictly under 60%, and No if it equals or exceeds it?

COMPOUND: Cc1ccc(NC(=O)[C@]23CCC(C)(C)CC2C2=CCC4[C@@]5(C)C[C@@H](O)[C@H](O)[C@@](C)(CO)C5CC[C@@]4(C)[C@]2(C)CC3)cc1 (some centres not stated)
CLASS: Yes
--
COMPOUND: NC(=S)Nc1cccc(NC(N)=S)c1
CLASS: No
--
COMPOUND: CCCCSc1nc(NCCc2c[nH]c3ccccc23)c(C#N)c(-c2ccccc2)n1
CLASS: Yes
--
COMPOUND: C[C@H](Nc1nc(NCCc2ccccc2)nc2ccccc12)c1ccccc1
CLASS: Yes
--
COMPOUND: CCN(CC)CCOc1ccc(Nc2ncc3cc(-c4ccc(O)c(C#N)c4)c(=O)n(C)c3n2)cc1
CLASS: No
--
COMPOUND: COc1cc2oc(-c3cccc(C(=O)Nc4ccc(Cl)cc4)c3)cc(=O)c2c(OCCNC(=O)[C@@H](N)CCC(=O)O)c1OC
CLASS: No
--
COMPOUND: CCCCSc1nc(Nc2ccc(C(C)=O)cc2)c(C#N)c(-c2ccc(OC)cc2)n1
CLASS: Yes
--
COMPOUND: N=C1N=C(SCc2nc3ccccc3[nH]2)NC(=O)/C1=C/c1ccc(Cl)cc1
CLASS: No
--
COMPOUND: COc1cc2c(c(OC)c1OC)C(=O)CC(c1cccc(NC(=O)c3cccc(NC(=O)[C@H](C)NC(=O)OC(C)(C)C)c3)c1)O2 (some centres not stated)
CLASS: No
--
COMPOUND: O=C(O)c1ccc(-c2ccc(/C=N/NC(=O)c3[nH]c4ccc(Br)cc4c3-c3ccccc3)o2)cc1
CLASS: Yes
--
COMPOUND: COc1ccc(-c2nc3ccc(C(=O)NN4C(=O)c5ccc([N+](=O)[O-])cc5C4=O)cc3[nH]2)cc1
CLASS: No
--
COMPOUND: Cc1ccc(C(=O)NN2C(=O)/C(=C/C=C/c3ccc([N+](=O)[O-])o3)SC2=S)cc1
CLASS: Yes
--
COMPOUND: COCOc1cc2c(=O)c(C)c(C(=O)N[C@@H](Cc3ccccc3)C(O)C(=O)NCc3ccccc3)oc2cc1OC (some centres not stated)
CLASS: Yes
--
COMPOUND: Cc1ccc2c(N)c(C(=O)Nc3ccc(OC(F)(F)F)cc3)sc2n1
CLASS: Yes
--
COMPOUND: Cn1cc(-c2nnc(N)nc2-c2c[nH]c3ccc(F)cc23)c2cccnc21
CLASS: Yes
--
COMPOUND: COc1cc2oc(-c3cccc(NC(=O)[C@H](CC(N)=O)NC(=O)OC(C)(C)C)c3)cc(=O)c2c(OC)c1OC
CLASS: No
--
COMPOUND: CCCCc1c(Nn2cnnn2)no[n+]1[O-]
CLASS: Yes
--
COMPOUND: CN(C)c1ccnc(CNCCSC2(c3ccc(C(F)(F)F)cc3)c3ccccc3C=Cc3ccccc32)c1
CLASS: Yes
--
COMPOUND: NS(=O)(=O)c1ccc(CCNC(=O)CSc2ccc(-c3ccc(Br)cc3)nn2)cc1
CLASS: No
--
COMPOUND: CN(C)CCOc1ccc(C(=O)C2[C@H](c3ccc(Cl)cc3)[C@@H](c3ccccc3)NC23C(=O)Nc2ccc(Br)cc23)cc1 (some centres not stated)
CLASS: Yes
--
COMPOUND: Nc1nc(C(F)(F)F)cs1
CLASS: No
--
COMPOUND: COc1ccc(C(=O)/C=C/c2ccc(Cl)c(Cl)c2)cc1S(N)(=O)=O
CLASS: Yes
--
COMPOUND: CN(C)CCn1c2ccccc2c2nc3cc4ccccc4cc3nc21
CLASS: Yes
--
COMPOUND: O=c1[nH]c2ccccc2cc1CSc1nccc(-c2ccc3ccccc3c2)n1
CLASS: No
--
COMPOUND: CC(=O)Nc1ccc(C(=O)NC(=S)Nc2ccc(S(N)(=O)=O)cc2)cc1
CLASS: No
--
COMPOUND: Cn1cc(-c2nc(N)nnc2-c2c[nH]c3ccc(F)cc23)c2cccnc21
CLASS: Yes
--
COMPOUND: COc1cc(C2CC(c3cc(OC)c(OC)c(OC)c3)=NN2c2ccccc2)ccc1OCc1ccc(C)cc1 (configuration not stated)
CLASS: No
--
COMPOUND: C#CCOc1cc(N(CC)CC)ccc1C(C(=O)NC(C)(C)C)N(C(=O)C1CCc2cc(F)ccc2O1)c1ccccc1F (configuration not stated)
CLASS: Yes
--
COMPOUND: C=C1CCC2C3(C)COC(c4cccc(F)c4)OC3CCC2(C)C1C/C=C1/C(=O)OCC1O (configuration not stated)
CLASS: Yes
--
COMPOUND: CCN(CC)C(=O)N/C(N)=N/c1nc2ccccc2s1
CLASS: No
--
COMPOUND: COc1ccc2[nH]cc(-c3cc(N)n4nc(-c5cn(C)c6ccccc56)cc4n3)c2c1
CLASS: Yes
--
COMPOUND: O=C(Cn1c(/C=C/c2ccccc2)nc2ccccc2c1=O)Nc1ccccc1
CLASS: No
--
COMPOUND: O=C(COc1ccc(NC(=O)Nc2ccc(Cl)c(Cl)c2)cc1)N=Nc1c(O)[nH]c2ccccc12
CLASS: Yes
--
COMPOUND: COc1ccc(NC(=O)Nc2ccc(OCc3ccc(F)cc3)cc2)cc1
CLASS: Yes
--
COMPOUND: CN(C)c1nc(NCCNS(=O)(=O)c2ccc(C(=O)/C=C/c3ccc(Cl)cc3)cc2)nc(Nc2ccc(F)cc2)n1
CLASS: Yes
--
COMPOUND: COc1ccc(C2=NN(c3ccccc3)C(c3ccc(OC)c(OCc4ccccc4)c3)C2)cc1OC (configuration not stated)
CLASS: No
--
COMPOUND: Cc1ccc(-c2nc(C#N)c(S(=O)(=O)N3CCN(S(=O)(=O)c4ccc(Cl)cc4)CC3)o2)cc1
CLASS: No
